Hello, the source for this data is ChEMBL document CHEMBL1201862, in case you need it.

Test system: SK-MEL-2
ASSAY TEXT: NCI tumour cell line growth inhibition, 48 h
Activity calls are given as the source filed them. Rule as the data show it: active = GI50 up to about 1.1 µM and inactive = higher.
Measured GI50, listed per entry.
EXPERIMENTAL READOUT: GI50

# COMPOUND, REPORTED VALUE
records = [
    ("C=CCNC1=C(C(=O)OCC)C(=O)CO1", "> 100 µM (inactive)"),
    ("CC[C@@H]1CSC(/C=C/C2OC3OC(C)(C)OC3C3OC(C)(C)OC23)=N1 (stereo partly drawn)", "14.1 µM (inactive)"),
    ("O=C(O)CNS(=O)(=O)c1ccc(NC(=O)Nc2ccccc2)cc1", "> 100 µM (inactive)"),
]

====

Test system: SK-OV-3
ASSAY TEXT: NCI tumour cell line growth inhibition, 48 h
Active and inactive are the calls of the source. Rule as the data show it: active = GI50 up to about 1.1 µM and inactive = higher.

# CPD SMILES, TARGET OF ASSAY, GI50
data = [
    ("COc1ccc(OC)c(C(Cc2ccnc3ccccc23)Cc2ccnc3ccccc23)c1", "SK-OV-3", "> 10 µM (inactive)"),
    ("O=C(CCC(=O)c1ccsc1)c1ccsc1", "SK-OV-3", "> 100 µM (inactive)"),
    ("O=[N+]([O-])c1cc(-c2nc(-c3ccccc3)c(-c3ccccc3)[nH]2)c(O)c([N+](=O)[O-])c1", "SK-OV-3", "20.2 µM (inactive)"),
    ("Nc1c(O)c(C(=O)O)cc2ccccc12", "SK-OV-3", "> 100 µM (inactive)"),
]

====

Measured GI50, listed per entry.
Tested on: RPMI-8226
ASSAY TEXT: NCI tumour cell line growth inhibition, 48 h
Active and inactive are the calls of the source. Cut-off read from the data, not from the text of the source: active = GI50 up to about 1.1 µM and inactive = higher. Where a SMILES comes first, the peptide text is derived from it. [ ]: non-standard residue; d: D form. Phe(4-NO2) = N[CH](Cc1ccc([N+](=O)[O-])cc1)C(=O)O

# COMPOUND, TARGET OF ASSAY, GI50
data = [
    ("CCOC(=O)NC(Nc1cccc(C(F)(F)F)c1)(C(F)(F)F)C(F)(F)F", "RPMI-8226", "> 100 µM (inactive)"),
    ("c1ccc(-c2cn3c(nc4ccccc43)c(-c3ccccc3)n2)cc1", "RPMI-8226", "> 100 µM (inactive)"),
    ("CC1(C)CC(=O)C(=CNc2nc(-c3cccc([N+](=O)[O-])c3)cs2)C(=O)C1", "RPMI-8226", "17.9 µM (inactive)"),
    ("CSCCCS/C1=C/CCCCCCCCCC1", "RPMI-8226", "> 100 µM (inactive)"),
    ("c1ccc(/N=C2\\S/C(=N\\C3CCCCC3)N(C3CCCCC3)\\C2=N/c2ccccc2)cc1", "RPMI-8226", "> 100 µM (inactive)"),
    ("COC(=O)[C@@H]1O[C@]12C(CO[Si](C)(C)C(C)(C)C)OC(n1ccc(=O)[nH]c1=O)C2O[Si](C)(C)C(C)(C)C (some centres undefined)", "RPMI-8226", "8.85 µM (inactive)"),
    ("CC(=O)Nc1ccc(NCC(=O)Nn2cnc3ccc(S(=O)(=O)Nc4ccc(NC(C)=O)cc4)cc3c2=O)cc1", "RPMI-8226", "> 100 µM (inactive)"),
    ("O=C(O)CNS(=O)(=O)c1ccc(NC(=O)Nc2ccccc2)cc1", "RPMI-8226", "> 100 µM (inactive)"),
    ("COc1ccc2nc(NC(=O)C(=O)C(C(=O)c3ccccc3-c3ccccc3)C3OC(=O)c4ccccc43)sc2c1 (centres undefined)", "RPMI-8226", "10.7 µM (inactive)"),
    ("C[S+]([O-])c1ncc2c(n1)-c1ccccc1OC2 (centres undefined)", "RPMI-8226", "81.8 µM (inactive)"),
    ("C[C@@H]1[C@H](c2ccccc2)O[B-]2(c3ccc(Br)cc3)OC(=O)C[N+]12C (some centres undefined)", "RPMI-8226", "> 100 µM (inactive)"),
    ("C=CCOC(=O)C1CCC(=O)N1C(=O)C(Cl)Cl (centres undefined)", "RPMI-8226", "> 100 µM (inactive)"),
    ("Cc1ccc(C)n1-n1c(Cc2ccc(Cl)cc2)n[nH]c1=O", "RPMI-8226", "33.3 µM (inactive)"),
    ("Nc1ccc(C(=O)NN2C(=O)[C@H](Cl)C2c2ccc(Cl)cc2)cc1 (some centres undefined)", "RPMI-8226", "1.21 µM (inactive)"),
    ("COc1c(C)cc2c(C(C)C)c(O)c(O)c(C=O)c2c1O", "RPMI-8226", "37.9 µM (inactive)"),
    ("COC(=O)CCC(NC(=O)C(CCC(=O)OC)NC(=O)C(CCC(=O)OC)NC(=O)C(CCC(=O)OC)NC(=O)C(CCC(=O)OC)NC(=O)C(Cc1ccc([N+](=O)[O-])cc1)NC(=O)C(CCC(=O)OC)NC(=O)C(CCC(=O)OC)NC(=O)C(CCC(=O)OC)NC(=O)C(CCC(=O)OC)NC(=O)C(CCC(=O)OC)NC(C)=O)C(N)=O (centres undefined) (Ac-E(OMe)E(OMe)E(OMe)E(OMe)E(OMe)[Phe(4-NO2)]E(OMe)E(OMe)E(OMe)E(OMe)E(OMe)-NH2; configuration not given here)", "RPMI-8226", "> 100 µM (inactive)"),
    ("CC(C(=O)c1ccccc1)C1(O)C(=O)Nc2ccccc21 (centres undefined)", "RPMI-8226", "> 100 µM (inactive)"),
    ("COC1N(C2CC(O)C(CO)O2)C(=O)NC(=O)C1(F)Br (centres undefined)", "RPMI-8226", "19.3 µM (inactive)"),
    ("COc1cc(C2(c3ncc[nH]3)SSSCC2O)ccc1O (centres undefined)", "RPMI-8226", "22.6 µM (inactive)"),
]

====

Test system: RXF 393
ASSAY TEXT: NCI tumour cell line growth inhibition, 48 h
The source made the active and inactive calls. No stated cut-off is given here; in the data, active = GI50 up to about 1.1 µM and inactive = higher.
Measured GI50, listed per entry.

# CPD SMILES, GI50
data = [
    ("Nc1ncc(CN2CCCC2)c(-c2ccccc2O)n1", "> 750 µM (inactive)"),
    ("COC1=CC(=Nc2c(Cl)cc(Cl)cc2OC(=O)c2ccc([N+](=O)[O-])cc2)C=C(OC)C1=O", "12.1 µM (inactive)"),
    ("CCOC(=O)c1ccc(N(C)Cc2cnc3nc(N)nc(N)c3n2)cc1", "5.97 µM (inactive)"),
    ("C/C(=N\\NC(=O)C[n+]1ccccc1)c1sc(-c2nc(C)c(/C(C)=N/NC(=O)C[n+]3ccccc3)s2)nc1C", "> 100 µM (inactive)"),
]

====

Tested on: RPMI-8226
ASSAY TEXT: NCI tumour cell line growth inhibition, 48 h
Activity calls are given as the source filed them. Rule as the data show it: active = GI50 up to about 1.1 µM and inactive = higher. Where a SMILES comes first, the peptide text is derived from it. [ ]: non-standard residue; d: D form. The star is where a group is joined. ξ: configuration not given here. ξD = NC(CC(=O)O)C(=O)O; Boc = CC(C)(C)OC(=O)*; Aib = CC(C)(N)C(=O)O; OBn = c1ccc(CO*)cc1
Possible outcomes: active, inactive

# COMPOUND, ANSWER LABEL
rows = [
    ("O=C(CC1(O)C(=O)Nc2c(Cl)cc(Cl)cc21)c1ccccc1 (centres undefined)", "inactive"),
    ("CC(N/N=N/c1ccc(-c2nc3ccccc3[nH]2)cc1)C(=O)O (centres undefined)", "inactive"),
    ("Cc1cccc2nc3c(C(=O)NCCN(C)C)cccc3cc12", "active"),
    ("COc1cc(Br)c(CC2(C#N)c3ccccc3C3C(N2C(=O)c2ccccc2)C3(Cl)Cl)cc1OC (centres undefined)", "active"),
    ("Cc1cnc(NCCCN(C)C)c2c1[nH]c1ccc3cc(O)ccc3c12", "active"),
    ("CC(C)(C)OC(=O)NC(CC(=O)OCc1ccccc1)C(=O)NC(C)(C)C(N)=O (centres undefined) (Boc-[ξD](OBn)-[Aib]-NH2)", "inactive"),
    ("CC(=O)N1c2ccccc2C(C)C1c1[nH]c2ccccc2c1C (centres undefined)", "inactive"),
    ("Nc1ncc(CN2CCCC2)c(-c2ccccc2O)n1", "inactive"),
    ("COc1cc(/C=C(\\C#N)c2ccccn2)cc(Br)c1O", "inactive"),
    ("CC1[C@@H](OCc2ccccc2)COC(=O)N1Cc1ccccc1 (some centres undefined)", "inactive"),
    ("COC(=O)c1c(OC(=O)c2ccccc2)noc1CC(=O)OC1C=CCCC1 (centres undefined)", "inactive"),
    ("C=CCN1CCC(c2cc(C(=O)OCC)[nH]c2-c2cc(C)no2)C1=O (centres undefined)", "inactive"),
    ("Clc1ccc(Cl)c(/N=N\\c2cc3c4c(c2)CCN4CCC3)c1", "inactive"),
    ("COc1ccc(C2N(c3ccc(C)c(N=C=O)c3)C(=O)N3C(c4ccc(OC)cc4)N(c4ccc(C)c(N=C=O)c4)C(=O)N23)cc1 (centres undefined)", "inactive"),
]
